Taken from PubChem BioAssay (NCI).

System: HL-60(TB) leukemia
Assay Protocol: NCI tumour cell line growth inhibition, 48 h
Listing: log10 of TGI of selected molecules
Experimental Readout: log10 of TGI (log10 of the value in µM)

[
  {
    "Molecule": "COc1cc2c(cc1O)CCN[C@@]21CS[C@H]2c3c(OC(C)=O)c(C)c4c(c3C(COC1=O)N1C2C2NC(Cc3cc(C)c(OC)c(O)c32)[C@@H]1C#N)OCO4 (stereo not given in full)",
    "log10 of TGI": -1.68
  },
  {
    "Molecule": "Fc1cnccc1-c1nc2ccc3[nH]ncc3c2c2c1CCCC2",
    "log10 of TGI": 0.86
  },
  {
    "Molecule": "N/C(=N\\O)c1cn(C2OC(CO)C(O)C2O)c2ncnc(N)c12 (stereo not given)",
    "log10 of TGI": -0.07
  },
  {
    "Molecule": "CC[C@@]12CC(C(=O)OC)=C3Nc4ccccc4[C@@]34CCN(C[C@H]3O[C@H]31)[C@@H]24",
    "log10 of TGI": 1.91
  },
  {
    "Molecule": "CCCCCCCC(=O)N1C2CC3CCC2(CS1(=O)=O)C3(C)C (stereo not given)",
    "log10 of TGI": 1.62
  }
]

----------
Recorded TGI for the following compounds
Test system: SN12C renal
Assay Protocol: NCI tumour cell line growth inhibition, 48 h
Experimental Readout: TGI

[
  {
    "Compound": "NC(Cc1c2ccccc2cc2ccccc12)C(=O)O (stereo not given)",
    "Result Value": "> 100 µM"
  },
  {
    "Compound": "CCCCCCCCCCCCCCCCCCCCCCC(=O)N[C@H]1CCc2cc(OC)c(OC)c(OC)c2-c2ccc(SC)c(=O)cc21",
    "Result Value": "> 100 µM"
  },
  {
    "Compound": "N#CC(C#N)=CNC(=S)Nc1ccc(S(=O)(=O)Nc2nccs2)cc1",
    "Result Value": "> 100 µM"
  },
  {
    "Compound": "O=C(N=Nc1c(O)[nH]c2c(Cl)cc(Cl)cc12)C(=O)Nc1cccc(C(F)(F)F)c1",
    "Result Value": "> 100 µM"
  },
  {
    "Compound": "COc1ccc(-c2cc(-c3ccc(Cl)cc3)c(C#N)c(=O)n2CCCCCC(=O)Nc2ccccc2N)cc1",
    "Result Value": "> 100 µM"
  },
  {
    "Compound": "C=C(CN1CCc2ccccc2C1)c1ccc(C(=O)Nc2cccc(N)c2)cc1",
    "Result Value": "36.5 µM"
  },
  {
    "Compound": "Cc1n[nH]c(C)c1-c1c(C)n[nH]c1C",
    "Result Value": "5.82 µM"
  },
  {
    "Compound": "CC(C(=O)NCNC(=O)c1ccccc1)C(=O)NCc1ccccc1 (stereo not given)",
    "Result Value": "> 100 µM"
  },
  {
    "Compound": "O=[N+]([O-])c1ccc(-c2ccc([C@H]3CC(c4cc(F)c(Cl)cc4Cl)=NN3)o2)cc1",
    "Result Value": "> 100 µM"
  },
  {
    "Compound": "C#CC[C@]12CC(=O)CC[C@H]1CC1(C2)OCCO1",
    "Result Value": "> 100 µM"
  }
]
